TARGET: T1, PSME2 (peptide code PSME2-001) peptide on HLA-A*02:01 (human)
T1 peptide: KVLERVNAV
TEST_PROTOCOL: cytokine release
EXPERIMENTAL_READOUT: binding result

Q: Provide binding result value for the following binder: R26P1A9 (TCR, V domains shown) Valpha: SQQGEEDPQALSIQEGENATMNCSYKTSINNLQWYRQNSGRGLVHLILIRSNEREKHSGRLRVTLDTSKKSSSLLITASRAADTASYFCLIGASGSRLTFGEGTQLTVNP Vbeta: DAGVIQSPRHEVTEMGQEVTLRCKPISGHDYLFWYRQTMMRGLELLIYFNNNVPIDDSGMPEDRFSAKMPNASFSTLKIQPSEPRDSAVYFCASSYFGWNEKLFFGSGTQLSVL
Ans: no recognition

Q: Provide binding result value for the following binder: R59P2E7 (TCR, V domains shown) Valpha: KQEVTQIPAALSVPEGENLVLNCSFTDSAIYNLQWFRQDPGKGLTSLLLIQSSQREQTSGRLNASLDKSSGRSTLYIAASQPGDSATYLCAVNSDYKLSFGAGTTVTVRA Vbeta: AAGVIQSPRHLIKEKRETATLKCYPIPRHDTVYWYQQGPGQDPQFLISFYEKMQSDKGSIPDRFSAQQFSDYHSELNMSSLELGDSALYFCASSLGLGTGDYGYTFGSGTRLTVV
Ans: no recognition

Q: Provide binding result value for the following binder: R42P3A9 (TCR, V domains shown) Valpha: GIQVEQSPPDLILQEGANSTLRCNFSDSVNNLQWFHQNPWGQLINLFYIPSGTKQNGRLSATTVATERYSLLYISSSQTTDSGVYFCAVHNFNKFYFGSGTKLNVKP Vbeta: AAGVIQSPRHLIKEKRETATLKCYPIPRHDTVYWYQQGPGQDPQFLISFYEKMQSDKGSIPDRFSAQQFSDYHSELNMSSLELGDSALYFCASSLLGQGYNEQFFGPGTRLTVL
Ans: no recognition
